Data provenance: ChEMBL document CHEMBL1122820

test system: Erythroleukemia cell line; assay: Percent benzidine-positive cell differentiation in friend erythroleukemia cells; type: functional, Mus musculus
Catalogue of Differentiation readings, one per entry.
Hi! Could you send only the number? It should be in %, unit omitted.

Below, 4 molecules whose answers are already recorded.
{"molecule": "OC[C@H]1OC(n2c(S)nc3c(O)ncnc32)[C@H](O)[C@@H]1O (some centres not stated)", "measurementUnits": "%", "Differentiation": 1}
{"molecule": "CN(C)c1nc2c(O)ncnc2n1[C@@H]1O[C@H](CO)[C@@H](O)[C@H]1O", "measurementUnits": "%", "Differentiation": 3}
{"molecule": "O=c1[nH]c(=O)c2nc(O)n(C3O[C@H](CO)[C@@H](O)[C@H]3O)c2[nH]1 (some centres not stated)", "measurementUnits": "%", "Differentiation": 3}
{"molecule": "CN(C)c1nc2c(O)ncnc2n1[C@@H]1O[C@H](CO)[C@@H](O)[C@@H]1O", "measurementUnits": "%", "Differentiation": 2}

Prompt: Return the recorded Differentiation value; entry: O=c1[nH]c(=O)c2nc(Br)n(C3O[C@H](CO)[C@@H](O)[C@H]3O)c2[nH]1 (some centres not stated)
Response: 1

Prompt: Return the recorded Differentiation value; entry: C[S+](C)[O-] [DIMETHYL SULFOXIDE]
Response: 70

Prompt: Return the recorded Differentiation value; entry: O=c1[nH]c(=O)c2nc(OCc3ccccc3)n(C3O[C@H](CO)[C@@H](O)[C@H]3O)c2[nH]1 (some centres not stated)
Response: 6
